settings: in ethanol, 313.15 K
Recorded Endpoint: solubility (mole fraction)

Report solubility (mole fraction) for O=C(O)c1cccc(O)c1O please.
0.105

====

details: in acetone, 288.15 K
Recorded Endpoint: solubility (mole fraction)
Reply with the value as a number alone.

Report solubility (mole fraction) for O=C(O)c1cccc(O)c1O please.
0.101

====

conditions: in ethyl formate, 303.15 K
Recorded Endpoint: solubility (mole fraction)
Reply with the value as a number alone.

Report solubility (mole fraction) for O=C(O)c1cccc(O)c1O please.
0.0321

====

details: in methyl acetate, 283.15 K
Recorded Endpoint: solubility (mole fraction)
Reply with the value as a number alone.

Report solubility (mole fraction) for O=C(O)c1cccc(O)c1O please.
0.0493
